molecular target: human recombinant CDC7 (Homo sapiens, UniProt O00311); experiment: CDC7 inhibition measurement (ADP-Glo technology); details: ATP 10 μM, 60 min at room temperature; read-out: CDC7 ADP-Glo ™ CI50
Sequence (O00311 whole entry): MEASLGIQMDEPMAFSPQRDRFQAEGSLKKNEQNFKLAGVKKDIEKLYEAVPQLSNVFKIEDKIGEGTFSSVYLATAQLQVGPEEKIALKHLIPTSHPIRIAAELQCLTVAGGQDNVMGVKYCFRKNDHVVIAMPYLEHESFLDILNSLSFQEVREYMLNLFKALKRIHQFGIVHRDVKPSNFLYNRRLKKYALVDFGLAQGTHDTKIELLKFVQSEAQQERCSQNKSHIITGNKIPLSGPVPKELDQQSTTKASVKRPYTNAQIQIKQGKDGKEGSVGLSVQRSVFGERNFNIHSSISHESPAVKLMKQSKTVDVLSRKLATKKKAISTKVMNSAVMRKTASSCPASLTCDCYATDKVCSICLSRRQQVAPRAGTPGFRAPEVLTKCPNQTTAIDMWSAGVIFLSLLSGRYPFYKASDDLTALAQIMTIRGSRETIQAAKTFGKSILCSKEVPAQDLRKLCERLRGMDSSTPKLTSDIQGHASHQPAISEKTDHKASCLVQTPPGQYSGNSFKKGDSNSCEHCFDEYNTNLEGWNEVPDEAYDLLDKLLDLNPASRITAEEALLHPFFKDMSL
Sequence (Q9UBU7 whole entry partner): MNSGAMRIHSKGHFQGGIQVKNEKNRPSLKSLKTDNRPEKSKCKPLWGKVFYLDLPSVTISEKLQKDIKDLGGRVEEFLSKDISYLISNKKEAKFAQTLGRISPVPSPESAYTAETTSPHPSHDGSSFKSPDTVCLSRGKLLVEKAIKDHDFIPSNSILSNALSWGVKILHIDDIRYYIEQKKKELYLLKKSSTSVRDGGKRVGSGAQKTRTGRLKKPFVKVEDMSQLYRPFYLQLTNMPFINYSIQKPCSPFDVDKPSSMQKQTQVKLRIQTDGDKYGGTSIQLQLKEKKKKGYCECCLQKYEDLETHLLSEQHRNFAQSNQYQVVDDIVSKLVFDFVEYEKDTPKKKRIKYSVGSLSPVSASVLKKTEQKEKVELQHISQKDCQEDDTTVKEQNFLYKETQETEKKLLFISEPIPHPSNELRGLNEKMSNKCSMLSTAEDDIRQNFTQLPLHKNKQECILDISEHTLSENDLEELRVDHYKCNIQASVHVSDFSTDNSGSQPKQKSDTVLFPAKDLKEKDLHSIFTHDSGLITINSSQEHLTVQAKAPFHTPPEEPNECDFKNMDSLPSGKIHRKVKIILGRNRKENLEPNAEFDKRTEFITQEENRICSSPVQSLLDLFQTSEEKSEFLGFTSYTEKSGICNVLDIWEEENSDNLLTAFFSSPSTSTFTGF
measure-name: IC50 (µM)
Write the number in µM without appending the unit.

Study these solved cases before continuing.
| compound | IC50, µM |
| --- | --- |
| Clc1cccc(CSc2ncnc3[nH]cnc23)c1 [Compound 8, 6-((3-Chlorobenzyl)thio)-9H-purine] | 5.21 |
| Clc1cccc(COc2ncnc3[nH]cnc23)c1 [Compound 6, 6-((3-chlorobenzyl)oxy)-9H-purine] | 8.98 |
| Brc1cccc(CSc2ncnc3[nH]cnc23)c1 [Compound 11, 6-((3-bromobenzyl)thio)-9H-purine] | 5.29 |
| Brc1ccccc1CSc1ncnc2[nH]cnc12 [Compound 13, 6-((2-bromobenzyl)thio)-9H-purine] | 6.24 |

Requested read-out IC50, target or system human recombinant CDC7 (Homo sapiens, UniProt O00311), entry Clc1ccc(CSc2ncnc3[nH]cnc23)cc1 [Compound 5, 6-((4-chlorobenzyl)thio)-9H-purine]
8.46

Requested read-out IC50, target or system human recombinant CDC7 (Homo sapiens, UniProt O00311), entry O=[N+]([O-])c1cccc(CSc2ncnc3[nH]cnc23)c1 [Compound 10, 6-((3-nitrobenzyl)thio)-9H-purine]
6.54

Requested read-out IC50, target or system human recombinant CDC7 (Homo sapiens, UniProt O00311), entry FC(F)(F)c1cccc(CSc2ncnc3[nH]cnc23)c1 [Compound 7]
6.9

Requested read-out IC50, target or system human recombinant CDC7 (Homo sapiens, UniProt O00311), entry c1ccc2c(CSc3ncnc4[nH]cnc34)cccc2c1 [Compound 2]
11.2

###

melting point listing for selected compounds.

Study these solved cases before continuing.
| input-smiles | melting point |
| --- | --- |
| CSc1ccc(CSc2ncnc3[nH]cnc23)cc1 | 203 to 205 °C |
| CCOC(=O)c1ccccc1CSc1ncnc2[nH]cnc12 | 145 to 147 °C |
| Clc1cccc(CSc2ncnc3[nH]cnc23)c1 | 167 to 169 °C |
| Clc1ccc(CSc2ncnc3[nH]cnc23)cc1 | 198 to 200 °C |
| Brc1ccccc1CSc1ncnc2[nH]cnc12 | 209 to 211 °C |

Now, please, on to the next compound.
Quick one: melting point of Clc1ccccc1CSc1ncnc2[nH]cnc12 ?
200 to 202 °C

###

Papp at 2.5 h listing for selected compounds.
experiment: PAMPA blood-brain barrier permeation (porcine brain lipid); assay type: in vitro ADME; conditions: PAMPA-BHE, PBS pH 7.4/EtOH 70:30, 2 h 30 min at 25° C., mean ± SD; read-out: Pe
Write the number in ×10⁻⁶ cm/s without appending the unit.

Study these solved cases before continuing.
| input-smiles | unit-abbrev | reported-measurement |
| --- | --- | --- |
| Clc1ccccc1CSc1ncnc2[nH]cnc12 | ×10⁻⁶ cm/s | 18.1 |
| FC(F)(F)c1ccc(CSc2ncnc3[nH]cnc23)cc1 | ×10⁻⁶ cm/s | 13.5 |
| Brc1ccc(COc2ncnc3[nH]cnc23)cc1 | ×10⁻⁶ cm/s | 14 |
| N#Cc1ccc(CSc2ncnc3[nH]cnc23)cc1 | ×10⁻⁶ cm/s | 2 |

Quick one: Papp at 2.5 h of N#Cc1cccc(CSc2ncnc3[nH]cnc23)c1 ?
2.3

Quick one: Papp at 2.5 h of Clc1ccc(CSc2ncnc3[nH]cnc23)cc1 ?
12.2

Quick one: Papp at 2.5 h of Clc1cccc(COc2ncnc3[nH]cnc23)c1 ?
7.2
